inhibition of growth at 25 µg/mL values, listed per item
Test system: HCT-8
Assay: Cytotoxicity against Homo sapiens (human) HCT8 cells assessed as growth inhibition at 25 ug/ml after 72 hr by MTT assay
Format: functional
Settings: HCT-8, 72 h, read-out: GI
Measurement label: inhibition of growth at 25 µg/mL (%)

>  <Compound smiles>
Clc1ccc2c(N/N=C/c3ccc[nH]3)ccnc2c1

>  <Tgt>
HCT-8

>  <Measurement label>
inhibition of growth at 25 µg/mL

>  <Result value>
100

$$$$
>  <Compound smiles>
Clc1ccc2c(N/N=C/c3cccs3)ccnc2c1

>  <Tgt>
HCT-8

>  <Measurement label>
inhibition of growth at 25 µg/mL

>  <Result value>
21.1

$$$$
>  <Compound smiles>
Clc1ccc2c(N/N=C/c3ccco3)ccnc2c1

>  <Tgt>
HCT-8

>  <Measurement label>
inhibition of growth at 25 µg/mL

>  <Result value>
53.2

$$$$
>  <Compound smiles>
O=[N+]([O-])c1ccc(/C=N/Nc2ccnc3cc(Cl)ccc23)o1

>  <Tgt>
HCT-8

>  <Measurement label>
inhibition of growth at 25 µg/mL

>  <Result value>
24.1

$$$$
>  <Compound smiles>
Clc1ccc2c(N/N=C/c3ncc[nH]3)ccnc2c1

>  <Tgt>
HCT-8

>  <Measurement label>
inhibition of growth at 25 µg/mL

>  <Result value>
34

$$$$
>  <Compound smiles>
O=[N+]([O-])c1ccc(/C=N/Nc2ccnc3cc(Cl)ccc23)s1

>  <Tgt>
HCT-8

>  <Measurement label>
inhibition of growth at 25 µg/mL

>  <Result value>
49

$$$$

Cited source for all entries: ChEMBL document CHEMBL3044621
